Listed compounds paired with reported pIC50
test: Inhibition of PKC
pIC50: −log10 of the molar value.

Observe how each entry below is paired with its result.
INSERT INTO assay_data (compound, value_measured) VALUES
  ('CCCCCCCC/C=C(\Br)C(O)C(Br)Br (stereo unspecified)', '≤ 3.70'),
  ('CCCCCCC(=O)C(Br)=C(Br)Br', '≤ 3.70');

Next item in the queue.
The compound `CCC[C@@H](O)C1=C(Br)/C(=C/Br)OC1=O` showed pIC50 equal to 4.12

====

Listed compounds paired with reported EC50
test system: LNCaP; test: Cytotoxicity against human LNCAP cells; format: functional; conditions: read-out: ED50 (the source's name)
Dear colleague, please return just the value in µg/mL, with no unit written.

INSERT INTO assay_data (structure_smiles, value_measured) VALUES
  ('CCC[C@@H](OC(C)=O)C1=C(Br)[C@](OC)(C(Br)Br)OC1=O', 4.5),
  ('CCC[C@@H](OC(C)=O)C1=C(Br)C(=C(Br)Br)OC1=O', 2.1),
  ('CCCCC1=C(Br)C(=C(Br)Br)OC1=O', 9.3),
  ('CCCCC1=C(Br)/C(=C/Br)OC1=O', 7.3);

Next item in the queue.
The compound `CCC[C@@H](O)C1=C(Br)/C(=C/Cl)OC1=O` showed EC50 equal to 3
